assay system: Neu5Ac(a2-3)Gal(b1-3)GalNAc(b1-3)Gal(a1-4)Gal(b1-4)Glc
measurement notes: glycan array binding signal (z-score within array); higher = stronger binding
assay setup: glycan notation: IUPAC condensed, linker removed
The full list was thinned out, with the strongest signals kept by preference.
value type: glycan array binding signal (z-score)
Numbers only.

CCL2 (Coprinopsis cinerea), B3GA02 (protein) MDSPAVTLSAGNYIIYNRVLSPRGEKLALTYPGRQRTPVTVSPLDGSSEQAWILRSYDSNSNTWTISPVGSPNSQIGWGAGNVPVVLPPNNYVWTLTLTSGGYNIQDGKRTVSWSLNNATAGEEVSIGADATFSGRWVIEKV = -0.278
CREG (Mus musculus), O88668 (protein) MAARAPELARSLLAALLAPALVALLVSPASGRGGRDHGDWDVDRRLPPLPPREDGPRVARFVTHVSDWGSLATISTIKEVRGWPFADIISISDGPPGEGTGEPYMYLSPLQQAVSDLQENPEATLTMSLAQTVYCRNHGFDPQSPLCVHIMMSGTVTKVNKTEEDYARDSLFVRHPEMKHWPSSHNWFFAKLKISRIWVLDYFGGPKVVTPEEYFNVTLQ = -0.096

For the next question, use this binder.
# get_value(readout='glycan array binding signal (z-score)', item= DCL-1 (Homo sapiens), Q8IX05 (protein) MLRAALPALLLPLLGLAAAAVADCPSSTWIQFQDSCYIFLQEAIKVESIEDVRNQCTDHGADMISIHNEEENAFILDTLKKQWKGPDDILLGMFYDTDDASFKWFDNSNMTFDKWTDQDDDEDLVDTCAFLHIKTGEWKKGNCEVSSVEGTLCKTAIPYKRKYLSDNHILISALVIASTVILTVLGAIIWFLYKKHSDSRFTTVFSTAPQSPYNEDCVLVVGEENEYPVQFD )
3.04

Cited source for all entries: the supplement of paper PMC8728848
